So I've got a bunch of compounds here, and I need their log10 of TGI values.
test system: HCT-15 colon; experiment: NCI tumour cell line growth inhibition, 48 h
On a log10 scale: recorded TGI, unit µM.

Inquiry: Fill blank: measured log10 of TGI of the compound S=c1[nH]c2ccc(Br)cc2c(=S)n1-c1ccccc1 is ____.
Reply text: 1.80

Inquiry: Fill blank: measured log10 of TGI of the compound CCc1cc(O)c(Cl)c(C)c1Cl is ____.
Reply text: 1.54

Inquiry: Fill blank: measured log10 of TGI of the compound Cc1cc2c3ccccc3n(C)c2c2c1C(=O)C=CC2=O is ____.
Reply text: 1.47

Inquiry: Fill blank: measured log10 of TGI of the compound CN(C)CCOc1ccc2c(c1)C/C(=C/c1ncc([N+](=O)[O-])n1C)C2=O is ____.
Reply text: 0.59

Inquiry: Fill blank: measured log10 of TGI of the compound ClCc1c(Cl)c(Cl)c(Cl)c(CCl)c1Cl is ____.
Reply text: 0.45

---

system: UACC-62 melanoma; test: NCI tumour cell line growth inhibition, 48 h
Response key: 1 (yes) means TGI >= 10 µM; 0 (no) means TGI < 10 µM.

Inquiry: Is TGI for CC(=O)Nc1ccc2c(c1)oc(=O)c1cc(NC(C)=O)ccc12 at or above 10 µM?
Reply text: 1 (yes)

Inquiry: Is TGI for CCc1cc(O)c(Cl)c(C)c1Cl at or above 10 µM?
Reply text: 1 (yes)

Inquiry: Is TGI for Cc1nc2sc(C(=O)Nc3ccccc3)c(N)c2cc1C(=O)/C=C/c1ccccc1 at or above 10 µM?
Reply text: 0 (no)

Inquiry: Is TGI for C[C@H](O)C1CC(Cn2nnc3c(N)ncnc32)C1(C)C (stereo not given in full) at or above 10 µM?
Reply text: 1 (yes)

Inquiry: Is TGI for Cc1ccc(N=C2C(=O)C3=C(OC(C)(C)CC3)c3ccccc32)cc1 at or above 10 µM?
Reply text: 0 (no)

Inquiry: Is TGI for O=NNc1nc(-c2cccnc2)nc2ccccc12 at or above 10 µM?
Reply text: 1 (yes)

Inquiry: Is TGI for CC(C)NC(=O)OCCS(=O)c1c(Cl)c(Cl)nn1C (stereo not given) at or above 10 µM?
Reply text: 1 (yes)

Inquiry: Is TGI for S=c1[nH]c(=S)c2cc(Sc3ccc4[nH]c(=S)[nH]c(=S)c4c3)ccc2[nH]1 at or above 10 µM?
Reply text: 1 (yes)

Inquiry: Is TGI for COc1cc2c(c(OC)c1OC)-c1ccc(SC)cc1[C@H](OC(=O)c1ccccc1)CC2 at or above 10 µM?
Reply text: 1 (yes)

---

So I've got a bunch of molecules here, and I need their TGI values.
test system: U251 CNS; experiment: NCI tumour cell line growth inhibition, 48 h

Inquiry: Fill blank: measured TGI of the molecule CC(C)CC1=[N+]=C(NC#N)N=C(CCC(=O)Nc2ccccc2[N+](=O)[O-])C1 is ____.
Reply text: > 100 µM

Inquiry: Fill blank: measured TGI of the molecule Cc1cc(=O)oc2cc3c(cc12)Oc1ccccc1O3 is ____.
Reply text: > 100 µM

Inquiry: Fill blank: measured TGI of the molecule COc1ccc(-c2cncn2-c2ccc(OC)cc2)cc1 is ____.
Reply text: > 100 µM

Inquiry: Fill blank: measured TGI of the molecule CC(=O)OC1c2ccccc2CCCCCCC12OCCO2 (stereo unspecified) is ____.
Reply text: > 100 µM

Inquiry: Fill blank: measured TGI of the molecule CN1CN(c2ccccc2)C2(CCN(CCc3csc4ccccc34)CC2)C1=O is ____.
Reply text: 29.8 µM

Inquiry: Fill blank: measured TGI of the molecule Cc1nc2ccccc2c(=O)[nH]1 is ____.
Reply text: > 100 µM

Data credit: PubChem BioAssay (NCI)
